Reported IC50 values for the following compounds.
System under test: Acetylcholinesterase (Homo sapiens, UniProt P22303)
Sequence (P22303 whole entry): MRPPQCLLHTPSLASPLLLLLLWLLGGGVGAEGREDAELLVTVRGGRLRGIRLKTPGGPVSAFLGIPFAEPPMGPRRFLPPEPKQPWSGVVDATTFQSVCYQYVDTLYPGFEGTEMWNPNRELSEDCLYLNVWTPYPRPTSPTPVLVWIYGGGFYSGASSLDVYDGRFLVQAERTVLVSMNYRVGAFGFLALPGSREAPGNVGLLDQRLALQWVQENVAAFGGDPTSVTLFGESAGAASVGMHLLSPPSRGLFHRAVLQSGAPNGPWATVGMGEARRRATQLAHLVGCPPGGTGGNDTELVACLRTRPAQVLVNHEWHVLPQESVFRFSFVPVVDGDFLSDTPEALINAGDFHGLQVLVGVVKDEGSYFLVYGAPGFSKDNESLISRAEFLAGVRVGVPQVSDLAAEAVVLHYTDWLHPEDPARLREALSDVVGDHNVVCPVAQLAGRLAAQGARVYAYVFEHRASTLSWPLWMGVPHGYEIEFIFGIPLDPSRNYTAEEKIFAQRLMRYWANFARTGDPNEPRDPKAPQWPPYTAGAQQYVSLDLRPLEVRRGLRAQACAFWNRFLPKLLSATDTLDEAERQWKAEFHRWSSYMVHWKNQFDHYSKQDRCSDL
Assay method text: Inhibition of recombinant human AChE using acetylthiocholine iodide as substrate preincubated with compound for 20 mins followed by substrate addition and measured after 240 sec by spectrophotometer based Ellman's method

[
  {
    "Given smiles": "Cc1cc(=O)[nH]c2c1C(=O)C(NCCCNc1c3c(nc4cc(Cl)ccc14)CCCC3)=CC2=O",
    "Measure unit": "nM",
    "IC50": 11.1
  },
  {
    "Given smiles": "Cc1cc(=O)[nH]c2c1C(=O)C(NCCNc1c3c(nc4cc(Cl)ccc14)CCCC3)=CC2=O",
    "Measure unit": "nM",
    "IC50": 121
  },
  {
    "Given smiles": "Cc1cc(=O)[nH]c2c1C(=O)C(NCCCCNc1c3c(nc4cc(Cl)ccc14)CCCC3)=CC2=O",
    "Measure unit": "nM",
    "IC50": 5.58
  },
  {
    "Given smiles": "Cc1cc(=O)[nH]c2c1C(=O)C(NCCCCNc1c3c(nc4ccccc14)CCCC3)=CC2=O",
    "Measure unit": "nM",
    "IC50": 58.3
  },
  {
    "Given smiles": "Cc1cc(=O)[nH]c2c1C(=O)C(NCCNc1c3c(nc4ccccc14)CCCC3)=CC2=O",
    "Measure unit": "nM",
    "IC50": 667
  }
]

* * *

System under test: Cholinesterase (Homo sapiens)
Sequence (P06276 whole entry): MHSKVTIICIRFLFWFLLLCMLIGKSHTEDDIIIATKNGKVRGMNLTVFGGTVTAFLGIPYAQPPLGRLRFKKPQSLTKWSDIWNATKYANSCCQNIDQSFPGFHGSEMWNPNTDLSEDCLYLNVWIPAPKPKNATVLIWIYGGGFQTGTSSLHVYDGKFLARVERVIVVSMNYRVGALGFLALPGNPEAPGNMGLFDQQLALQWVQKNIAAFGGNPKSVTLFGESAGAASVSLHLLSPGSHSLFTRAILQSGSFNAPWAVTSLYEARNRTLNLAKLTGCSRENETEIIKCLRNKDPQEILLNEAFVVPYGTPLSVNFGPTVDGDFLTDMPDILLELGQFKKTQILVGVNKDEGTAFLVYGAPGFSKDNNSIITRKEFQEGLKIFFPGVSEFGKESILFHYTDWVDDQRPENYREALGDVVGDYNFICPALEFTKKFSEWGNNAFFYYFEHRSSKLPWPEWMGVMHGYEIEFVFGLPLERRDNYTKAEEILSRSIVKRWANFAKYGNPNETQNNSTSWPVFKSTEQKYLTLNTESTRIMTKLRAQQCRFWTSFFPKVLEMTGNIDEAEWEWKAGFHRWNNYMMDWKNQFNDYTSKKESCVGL
Assay method text: Inhibition of human serum BChE using butyrylthiocholine iodide as substrate preincubated with compound for 20 mins followed by substrate addition and measured after 240 sec by spectrophotometer based Ellman's method
pIC50: −log10 of the molar value.
Reported pIC50 values for the following compounds.

[
  {
    "Given smiles": "Cc1cc(=O)[nH]c2c1C(=O)C(NCCCNc1c3c(nc4cc(Cl)ccc14)CCCC3)=CC2=O",
    "pIC50": 5.87
  },
  {
    "Given smiles": "Cc1cc(=O)[nH]c2c1C(=O)C(NCCCCNc1c3c(nc4ccccc14)CCCC3)=CC2=O",
    "pIC50": 6.96
  },
  {
    "Given smiles": "Cc1cc(=O)[nH]c2c1C(=O)C(NCCNc1c3c(nc4ccccc14)CCCC3)=CC2=O",
    "pIC50": 6.74
  },
  {
    "Given smiles": "Cc1cc(=O)[nH]c2c1C(=O)C(NCCNc1c3c(nc4cc(Cl)ccc14)CCCC3)=CC2=O",
    "pIC50": 5.68
  },
  {
    "Given smiles": "Cc1cc(=O)[nH]c2c1C(=O)C(NCCCCNc1c3c(nc4cc(Cl)ccc14)CCCC3)=CC2=O",
    "pIC50": 5.55
  }
]

* * *

Test system: HepG2
Assay method text: Cytotoxicity against human HepG2 cells assessed as reduction in cell viability at 10 uM incubated for 24 hrs by MTT assay relative to control
Format: toxicity, cell-based
Measurement conditions: hepg2, 24 h
Experimental readout: Activity (%)

[
  {
    "Given smiles": "Cc1cc(=O)[nH]c2c1C(=O)C(NCCCNc1c3c(nc4cc(Cl)ccc14)CCCC3)=CC2=O",
    "Quantitative readout": 50
  },
  {
    "Given smiles": "Cc1cc(=O)[nH]c2c1C(=O)C(NCCCCNc1c3c(nc4cc(Cl)ccc14)CCCC3)=CC2=O",
    "Quantitative readout": 50
  },
  {
    "Given smiles": "Cc1cc(=O)[nH]c2c1C(=O)C(NCCCCNc1c3c(nc4ccccc14)CCCC3)=CC2=O",
    "Quantitative readout": 14
  },
  {
    "Given smiles": "Cc1cc(=O)[nH]c2c1C(=O)C(NCCNc1c3c(nc4ccccc14)CCCC3)=CC2=O",
    "Quantitative readout": 12
  },
  {
    "Given smiles": "Cc1cc(=O)[nH]c2c1C(=O)C(NCCNc1c3c(nc4cc(Cl)ccc14)CCCC3)=CC2=O",
    "Quantitative readout": 50
  }
]
